# Test system: KB 3-1
# ASSAY EXPLANATION: Compound was tested for cell arrest at sub-G1 phase at 100 nM concentration in KB human cancer cells
# Format: functional
# RUN PARAMETERS: read-out: Inhibition
READOUT LABEL: Percent of cells in sub-G1 phase at 0.1 µM
Returns: string containing the number followed by the unit.

Known results for compounds:
{"columns": ["COMPOUND", "RESULT"],
 "data": [
  ["COc1cc(C(=O)c2cc(Cl)ccc2O)cc(OC)c1OC", "26.5%"],
  ["COc1ccc(/C=C\\c2cc(OC)c(OC)c(OC)c2)cc1O [COMBRETASTATIN A4]", "11.6%"],
  ["COc1ccc(C(=O)c2cc(OC)c(OC)c(OC)c2)cc1O [PHENSTATIN]", "13%"]
]}

Shifting focus to the compound that follows.
// sample `COc1cc(C(=O)c2cc(Cl)ccc2N)cc(OC)c1OC` , its Percent of cells in sub-G1 phase at 0.1 µM was 13.9%

* * *

# Tested on: KB 3-1
# ASSAY EXPLANATION: Compound was tested for cell arrest at S phase at 50 nM concentration in KB human cancer cells
# Format: functional
# RUN PARAMETERS: read-out: Inhibition
READOUT LABEL: percent of cells arrested in S phase at 0.05 µM (%)
Please give a number only; it is taken to be in %.

Known results for compounds:
{"columns": ["COMPOUND", "MEASURED NUMBER"],
 "data": [
  ["COc1cc(C(=O)c2cc(Cl)ccc2O)cc(OC)c1OC", 15.9],
  ["COc1cc(C(=O)c2cc(Cl)ccc2N)cc(OC)c1OC", 14.6],
  ["COc1ccc(/C=C\\c2cc(OC)c(OC)c(OC)c2)cc1O", 10.6]
]}

// sample `COc1ccc(C(=O)c2cc(OC)c(OC)c(OC)c2)cc1O` , its percent of cells arrested in S phase at 0.05 µM was 10.5

* * *

# Test system: HONE1 cell line
# ASSAY EXPLANATION: Inhibitory concentration against human NPC cancer cell line using tetrazolium dye reduction assay (MTT)
# Format: functional, cell-based
READOUT LABEL: IC50 (nM)
Please give a number only; it is taken to be in nM.

Known results for molecules:
{"columns": ["COMPOUND", "TARGET", "IC50 (nM)"],
 "data": [
  ["COc1cc(C(=O)c2cc(Cl)ccc2O)cc(OC)c1OC", "HONE1 cell line", 6110],
  ["COc1ccc(N)c(C(=O)c2cc(OC)c(OC)c(OC)c2)c1", "HONE1 cell line", 59.2],
  ["CNc1ccc(Cl)cc1C(=O)c1cc(OC)c(OC)c(OC)c1", "HONE1 cell line", 5140],
  ["COc1ccc(C(=O)c2cc(OC)c(OC)c(OC)c2)cc1O", "HONE1 cell line", 138],
  ["COc1cc(C(=O)c2cc(Cl)ccc2N)cc(OC)c1OC", "HONE1 cell line", 64.5]
]}

// sample `COc1ccc(/C=C\c2cc(OC)c(OC)c(OC)c2)cc1O` , its IC50 was 6.5

// sample `COc1ccc(C(=O)c2cc(OC)c(OC)c(OC)c2)c(N)c1` , its IC50 was 35.8
